- Test system: HIV-1 HXB2 strain
- EXPERIMENT: Inhibition of HIV-1 HXB2 (wild-type) replication in MT-4 cell line
- Format: cell-based
- CONDITION_NOTES: Human immunodeficiency virus 1, MT4; wild-type HXB2 strain, MT-4 cell line; read-out: Average IC50

>  <COMPOUND>
N#Cc1cc(Cl)cc(Oc2c(Br)ccc(CC(=O)Nc3ccc(S(N)(=O)=O)cc3Cl)c2F)c1 [VM-1500A]

>  <TARGET_DESC>
HIV-1 HXB2 strain

>  <UNIT_TAG>
nM

>  <IC50>
1.3

$$$$

----------
- System: HIV-1 HXB2 strain
- EXPERIMENT: Inhibition of HIV-1 HXB2 (wild-type) replication in MT-4 cell line
- Type: cell-based
- CONDITION_NOTES: Human immunodeficiency virus 1, HXB2, MT4; as restated; read-out: effective concentration (IC50)
VALUE_KIND: IC50 (nM)

>  <MOLECULE>
N#Cc1cc(Cl)cc(Oc2c(Br)ccc(CC(=O)Nc3ccc(S(N)(=O)=O)cc3Cl)c2F)c1 [VM-1500A]

>  <TARGET_DESC>
HIV-1 HXB2 strain

>  <UNIT_TAG>
nM

>  <OBSERVED>
1.3

$$$$
